Taken from patent US20220098319A1.

- Target Entity: T1, human CD73 (full length, on transfected CHOK1 cells) (human, UniProt P21589 27-549)
- T1 construct: whole, on cells; The same id is used for CD73 on human CD4+ T cells in the proliferation assays; also called CHOK1-hCD73; hCD73
- T1 sequence (looked up): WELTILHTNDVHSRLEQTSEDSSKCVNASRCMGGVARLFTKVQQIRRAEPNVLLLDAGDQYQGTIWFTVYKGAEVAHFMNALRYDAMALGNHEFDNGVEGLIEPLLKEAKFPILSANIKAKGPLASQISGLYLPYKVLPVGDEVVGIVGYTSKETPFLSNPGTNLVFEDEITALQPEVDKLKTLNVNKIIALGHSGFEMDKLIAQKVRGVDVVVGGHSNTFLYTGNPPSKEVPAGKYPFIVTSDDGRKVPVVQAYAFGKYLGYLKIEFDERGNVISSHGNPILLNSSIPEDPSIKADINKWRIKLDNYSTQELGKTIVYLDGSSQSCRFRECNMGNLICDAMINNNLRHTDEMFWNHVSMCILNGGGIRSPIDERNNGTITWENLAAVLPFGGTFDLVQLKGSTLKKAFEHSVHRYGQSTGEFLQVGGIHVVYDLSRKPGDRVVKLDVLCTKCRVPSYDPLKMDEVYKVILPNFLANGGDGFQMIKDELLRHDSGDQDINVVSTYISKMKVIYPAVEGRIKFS
- Assay Explanation: FACS on CHOK1-hCD73 cells

{"columns": ["Binder", "EC50"],
 "data": [
  ["mab038xhIgG1TM (clone 69C9E12), mouse-human chimeric anti-CD73 antibody (antibody, V domains shown, also called mAb038 chimeric antibody) VH: QVQLQQPGTELVNPGASVKLSCKASGYTFTSYWMHWVKQRPGQGLEWIGNINPSNGGTHYNEKFNNKATLTVDKSSSTAYMQLSSLTSEDSAVFYCARGDYAYDWYFTVWGTGTTVTVSS VL: DIVLTQSPASLAVSLGQRAIISCKASQSVSFAGTGLMHWYQQKPGQQPKLLIYRVSNLEAGIPTRFSGSGSRTDFTLNIHPVEEDDAATYYCQQNREFPWTFGGGTKLEIK", "1.8 nM"],
  ["mab020xhIgG1TM (clone 24D6B4), mouse-human chimeric anti-CD73 antibody (antibody, V domains shown, also called mAb020 chimeric antibody) VH: EVQLQQSGPELVKPGASVKIPCKASGYTFTDYNMDWVKQRHGKSLEWIGDINPNNGGTVYNQKFKGKATLTVDKSSNTAYMELRSLTSEDTAVYYCARISGTGYWYFDVWGTGTTVTVSS VL: DIQMTQSPASLSVSVGETVTITCRASENIYSNLAWYQQKQGKSPQLLVYGATNLADGVPSRFSGSDSGTQYSLKINSLQSEDFGSYYCQHFWGTPWTFGGGTKLEIK", "1.6 nM"],
  ["mab032xhIgG1TM (clone 56F12H8), mouse-human chimeric anti-CD73 antibody (antibody, V domains shown, also called mAb032 chimeric antibody) VH: EVQLVESGGDLVKPGGSLKLSCAASGFTFSTHGMSWVRQTPDKRLEWVAIISSDRSDIDYTDNVKGRFTISRDNGKNTLYLQMSSLKSEDTAIYHCARHRGYDGFYYAMDYWGQGTSVTVSS VL: DILMTQSPSSLTVTAGEKVTMSCRSSQSLLNSGNQKNYLTWYQQRPGRPPKLLIYWASTRISGVPDRFAGSGSGTDFTLTISIVQAEDLAVYYCQNDYSYPLTFGSGTKLELR", "3.2 nM"],
  ["mab042xhIgG1TM (clone 77B9A3), mouse-human chimeric anti-CD73 antibody (antibody, V domains shown, also called mAb042 chimeric antibody) VH: QVQLQQSGAGLVKPGASVKLSCKASGYTFTNYWMHWVKQRPGQGLEWIGMIHPNSGSTNNNEKFKNKATLTVDKSSNTAYMQLSSLTSEDSAVYYCARFFFGGYPHYYALDYWGQGTSVTVSS VL: DIVMTQSQKFMSTTVGDRVSITCKASQNVGTAVAWYQQKPGQSPKLLIYSASDRYTGVPDRLTGSGSGTDFTLTISNVQSEDLADYFCQQYSSFPLFTFGSGTKLVIQ", "2.3 nM"],
  ["mab034xhIgG1TM (clone 60G1C8), mouse-human chimeric anti-CD73 antibody (antibody, V domains shown, also called mAb034 chimeric antibody) VH: DVQLQESGPGLVKPSQSLSLTCSVTGYSITSRYYWNWIRQFPGNKLEWMGYMTYDGTNNYNPSLTNRISITRDTSKNQFFLKLNSVTAEDTATYFCARGGWDPFDYWGQGTTLTVSS VL: DIQMTQSPAALSASVGETVTITCRASDNIYSYLAWYQQKQGKCPQLLVKNAKTLAEGVPSRFSGSGSGTQFSLRINSLQPDDFGTYYCQHYYGTPLTFGAGTKLELK", "5.7 nM"],
  ["mab044xhIgG1TM (clone 80H7D6), mouse-human chimeric anti-CD73 antibody (antibody, V domains shown, also called mAb044 chimeric antibody) VH: EVKLVESGGGLVQPGGSLRLSCAASGFTFTDYYMSWVRQPPGKALEWLGFIRNKADGSTTEYSASVKGRFTISRDNSQSILYLQMNALRPEDSATYYCTRSPIYFDNWYFDVWGTGTTVTVSS VL: DIVMSQSPSSLAVSVGEKVTMTCKSSQSLLYSNNQKNYLAWYQQKPGQSPKLLIYWASTRESGVPDRFTGSGSGTDFTLTLSSVKAEDLAVYYCQQYYSYPFTFGSGTKLEIK", "> 10 nM"],
  ["mab036xhIgG1TM (clone 66H6C12), mouse-human chimeric anti-CD73 antibody (antibody, V domains shown, also called mAb036 chimeric antibody) VH: QVQLQQSGAEVVKPGASVKISCKASGYVFSSYWINWVKQRPGKGLEWIGKIFPGNGDTDYNGNFKGKATLTADKSSSTAYMQLSSLTSEDSAVYFCAGFADWGQGTLVTVSA VL: DIQMTQSPSSLSASLGERVSLTCRASQDIGERLIWLQQEPDGTFKRLIYATSSLDSGVPKRFSGSSSGSDYSLTISRLESEDFVDYYCLQYASSPYTFGGGTKLEIK", "2 nM"],
  ["mab065xhIgG1TM (clone 125A4E10), mouse-human chimeric anti-CD73 antibody (antibody, V domains shown, also called mAb065 chimeric antibody) VH: EVQLQQSGPELVKPGASVKISCKASGYTFTDYYMNWVKQSHGKSLEWIGNINPNNGDTNYNQKFKGKATLTVDKSSSTASMELRSLTSEDSAVYYCANSGYYYFDYWGQGTTLTVSS VL: DIVMTQSPSSLTVTAGEKVTMSCKSSQSLLNSGNQKNYLTWYQQKPGQPPKVLIYWASTRESGVPDRFTGSGSGTDFTLTISSVQAEDLAVYYCQNDYSYPPTFGGGTNLEIK", "1.2 nM"],
  ["mab030xhIgG1TM (clone 42A5A7), mouse-human chimeric anti-CD73 antibody (antibody, V domains shown, also called mAb030 chimeric antibody) VH: DIQLQESGPGLVKPSQSLSLTCSVTGYSITSRYYWNWIRQFPGNKLEWMGYITYDDNNNYNPSLKNRISITRDTSKNQFFLKLNSVTPEDTATYYCARGGWDPFLYWGQGTLVTVSA VL: DIQMTQSPASLSASVGETVTITCRASDNIYSYLAWYQQKQGKSLQLLVDSAKNLGEGVPSRFSGSGSGTQFYLKINSLQPEDFGVYYCQHYYGTPFTFGGGTKLELK", "1.5 nM"],
  ["mab041xhIgG1TM (clone 71E10B3), mouse-human chimeric anti-CD73 antibody (antibody, V domains shown, also called mAb041 chimeric antibody) VH: QVQLQQPGTELVKPGASVKLSCKASGYTFTSYWMHWVKQRPGQGLEWIGNINPSNGGTNYNQKFKSKATLTVDKSSNTASMQLSSLTSEDSAVYYCARGDYGYDWYLDVWGTGTTVTVSS VL: DIVLTQSPASLAVSLGQRAIISCKASQSVSFAGPSLMHWYQQKPGQQPKLLIYRTSNLEAGVPTRFSGSGSGTDFTLNIHPVEEDDAATYYCQQNREFPWTFGGGTKLEIK", "1.3 nM"]
]}
